Source listed as patent US20240026024A1.

// reported kon per item
- tested_target: T1, human CD73 protein (ACRO Biosystems, Cat No. CD3-H52H7) (human, UniProt P21589 27-547)
- T1 construct: Bought protein; also called recombinant CD73 protein; recombinant CD73
- T1 sequence: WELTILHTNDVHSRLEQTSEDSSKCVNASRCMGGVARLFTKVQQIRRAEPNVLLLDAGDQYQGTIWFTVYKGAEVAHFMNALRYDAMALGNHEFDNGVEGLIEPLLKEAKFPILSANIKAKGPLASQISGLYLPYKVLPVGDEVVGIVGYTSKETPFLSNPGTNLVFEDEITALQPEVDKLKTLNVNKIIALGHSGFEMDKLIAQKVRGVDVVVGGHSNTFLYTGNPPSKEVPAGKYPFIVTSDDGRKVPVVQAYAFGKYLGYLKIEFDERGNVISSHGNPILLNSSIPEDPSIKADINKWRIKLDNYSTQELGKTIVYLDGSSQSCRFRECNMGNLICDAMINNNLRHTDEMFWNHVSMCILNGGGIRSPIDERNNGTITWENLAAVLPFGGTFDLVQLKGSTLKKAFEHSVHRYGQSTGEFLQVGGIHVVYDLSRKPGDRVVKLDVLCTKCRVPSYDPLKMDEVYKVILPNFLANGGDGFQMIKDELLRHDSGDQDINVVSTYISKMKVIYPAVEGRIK
- assay_summary: SPR (Biacore T200), antibody captured on protein A chip, CD73 as analyte, 1:1 model
The answer is to be given in M⁻¹ s⁻¹; state only the numeric part.

Task: What measured kon goes with 900697 (antibody, V domains shown, Constant regions are not restated) VH: QVQLVESGGGLVKPGGSLRLSCAASGFTFSKYAMSWVRQAPGKGLEWVAEISSGGGYINYADSVTGRFTISRDNAKNSLYLQMNSLRAEDTAVYYCARAIYYYGSSYNYYAMDYWGQGTTVTVSS VL: DIQMTQSPSSLSASVGDRVTITCRASQDVGTAEAWYQQKPGKAPKLLIYWASTLQSGVPSRFSGSGSGTDFTLTISSLQPEDFATYYCQQYSSYPLTFGQGTKLEIK ?
Output: 380000

Task: What measured kon goes with 900581 (antibody, human IgG1, V domains shown) VH: EVQLVESGGGLVKPGGSLKLSCAASGFTFSKYAMSWVRQSPEKRLEWVAEISSGGGYINYPDTVTGRFTISRDNAKNTLYLEMSSLRSGDTAMYYCARAIYYYGSSYNYYAMDYWGQGTSVTVSS VL: DIVMTQSHKFMSTSVGDRVSITCKASQDVGTAEAWYQQKPGQSPKLLIYWASTRHTGVPDRFTGSGSGTDFTLTIGNVQSEDLADYFCQQYSSYPLTFGGGTKLEIK ?
Output: 267000

Task: What measured kon goes with 900694 (antibody, V domains shown, Constant regions are not restated; it was detected with anti-human Fc and captured on protein A) VH: EVQLVESGGGLVKPGGSLRLSCAASGFTFSKYAMSWVRQAPGKGLEWVAEISSGGGYINYPDTVTGRFTISRDNAKNSLYLQMNSLRAEDTAVYYCARAIYYYGSSYNYYAMDYWGQGTTVTVSS VL: DIQMTQSPSSLSASVGDRVTITCRASQDVGTAEAWYQQKPGKAPKLLIYWASTRHTGVPDRFSGSGSGTDFTLTISSLQPEDFATYYCQQYSSYPLTFGQGTKLEIK ?
Output: 329000

Task: What measured kon goes with 900695 (antibody, V domains shown, Constant regions are not restated) VH: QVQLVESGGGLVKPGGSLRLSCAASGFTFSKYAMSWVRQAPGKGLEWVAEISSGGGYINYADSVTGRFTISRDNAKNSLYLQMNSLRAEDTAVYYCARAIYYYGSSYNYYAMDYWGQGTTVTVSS VL: DIQMTQSPSSLSASVGDRVTITCRASQDVGTAEAWYQQKPGKAPKLLIYWASTRHTGVPSRFSGSGSGTDFTLTISSLQPEDFATYYCQQYSSYPLTFGQGTKLEIK ?
Output: 29500

Task: What measured kon goes with 900696 (antibody, V domains shown, Constant regions are not restated) VH: QVQLVESGGGLVKPGGSLRLSCAASGFTFSKYAMSWIRQAPGKGLEWVAEISSGGGYINYADSVKGRFTISRDNAKNSLYLQMNSLRAEDTAVYYCARAIYYYGSSYNYYAMDYWGQGTTVTVSS VL: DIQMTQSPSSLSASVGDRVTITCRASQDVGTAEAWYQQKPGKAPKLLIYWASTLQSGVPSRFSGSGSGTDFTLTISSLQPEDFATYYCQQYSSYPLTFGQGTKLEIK ?
Output: 219000

Field: next binder
Task: What measured kon goes with 900698 (antibody, V domains shown, Constant regions are not restated) VH: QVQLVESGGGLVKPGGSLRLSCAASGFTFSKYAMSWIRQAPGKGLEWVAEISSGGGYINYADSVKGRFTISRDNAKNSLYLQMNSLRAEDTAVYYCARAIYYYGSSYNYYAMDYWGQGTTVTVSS VL: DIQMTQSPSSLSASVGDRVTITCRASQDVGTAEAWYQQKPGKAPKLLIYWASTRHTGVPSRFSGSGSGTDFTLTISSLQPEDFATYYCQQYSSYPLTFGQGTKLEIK ?
Output: 339000
